# TEST_PROTOCOL: change in splice reporter luminescence, either direction, cell-based, HEK293, spliceosome inhibition project, primary screen (AID 1101);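 further: HEK293 cells carrying a splicing-competent luciferase reporter gene; test concentration not given here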
# APPLIED_CONDITIONS: HEK293 splicing luciferase reporter, 24 h, higher = more signal, called active from +8 up or from −8 down
Give z-score for every item shown.
Answers are plain numbers.

Consider the worked cases shown below.
COc1ccc(C(=O)Nc2ccc(CN3C(=O)[C@@]4(O[C@@H](CC(=O)N5Cc6ccccc6C[C@H]5CO)[C@H]([Si](C)(C)c5ccc(OC)cc5)[C@H]4C)c4ccccc43)cc2)cc1 ... -1.29
C=CCOC(=O)[C@@H]1[C@H]2C(=O)O[C@H](c3ccccc3)[C@H](c3ccccc3)N2[C@H](c2ccc(OCCOC(=O)[C@H]3C[C@H]4C(=O)N[C@@H](Cc5ccccc5)C(=O)N4[C@H]3c3cccc(OCCO)c3)cc2)[C@@]12C(=O)Nc1ccc(I)cc12 ... -0.316

# evaluate next
Inquiry: # return recorded z-score for entry "NC(=O)[C@@H]1[C@H]2C(=O)O[C@H](c3ccccc3)[C@H](c3ccccc3)N2[C@H](c2ccccc2OCCO)[C@@]12C(=O)Nc1ccc(C#CCCO)cc12"
Reply text: 0.305

====

# TARGET_UNDER_TEST: Epidermal growth factor receptor (Homo sapiens) (UniProt P00533)
# Sequence (P00533 whole entry, looked up): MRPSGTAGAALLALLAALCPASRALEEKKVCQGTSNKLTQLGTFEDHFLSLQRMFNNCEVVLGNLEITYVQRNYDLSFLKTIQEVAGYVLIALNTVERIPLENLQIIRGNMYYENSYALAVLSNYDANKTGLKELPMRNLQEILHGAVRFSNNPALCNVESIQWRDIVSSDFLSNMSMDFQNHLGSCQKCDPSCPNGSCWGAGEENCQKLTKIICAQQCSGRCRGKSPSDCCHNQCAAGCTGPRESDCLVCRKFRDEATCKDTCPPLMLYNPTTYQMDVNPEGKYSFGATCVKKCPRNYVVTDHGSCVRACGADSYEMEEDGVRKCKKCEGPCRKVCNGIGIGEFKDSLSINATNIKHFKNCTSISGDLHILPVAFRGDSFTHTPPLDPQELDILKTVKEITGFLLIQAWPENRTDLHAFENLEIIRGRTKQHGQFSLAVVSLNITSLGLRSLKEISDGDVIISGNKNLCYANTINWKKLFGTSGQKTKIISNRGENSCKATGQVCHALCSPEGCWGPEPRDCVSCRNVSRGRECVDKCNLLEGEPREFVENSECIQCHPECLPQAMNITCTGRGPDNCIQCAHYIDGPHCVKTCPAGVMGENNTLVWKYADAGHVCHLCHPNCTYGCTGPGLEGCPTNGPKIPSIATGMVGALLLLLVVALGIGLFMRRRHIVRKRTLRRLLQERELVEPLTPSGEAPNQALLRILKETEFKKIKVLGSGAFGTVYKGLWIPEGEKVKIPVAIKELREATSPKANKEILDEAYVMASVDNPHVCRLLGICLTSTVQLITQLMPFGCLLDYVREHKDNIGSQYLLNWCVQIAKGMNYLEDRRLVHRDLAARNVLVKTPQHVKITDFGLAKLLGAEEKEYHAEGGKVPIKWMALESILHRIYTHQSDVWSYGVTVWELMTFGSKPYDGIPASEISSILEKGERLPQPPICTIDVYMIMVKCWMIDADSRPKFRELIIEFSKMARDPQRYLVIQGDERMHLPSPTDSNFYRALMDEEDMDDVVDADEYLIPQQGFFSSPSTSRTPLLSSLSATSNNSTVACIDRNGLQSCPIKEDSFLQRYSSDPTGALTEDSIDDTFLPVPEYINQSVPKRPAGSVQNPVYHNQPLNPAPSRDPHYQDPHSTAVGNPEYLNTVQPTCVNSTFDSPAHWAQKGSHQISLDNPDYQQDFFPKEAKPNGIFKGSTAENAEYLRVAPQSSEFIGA
# TEST_PROTOCOL: compounds binding epidermal growth factor receptor – biochemical, small-molecule microarray, 635 nm fluorescence, primary screen (AID 1104);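 further: score merges 667 nm emission intensity with spot signal to noise over triplicate slides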
# APPLIED_CONDITIONS: EGFR binding, higher = more signal
Classify as follows. Reported composite z-score greater than or equal to 0.2: T. Reported composite z-score below: F.

COCCCNC(=O)[C@@]1(Cc2ccccc2N=[N+]=[N-])N=C(c2ccc(OCCCO)cc2)O[C@H]1c1ccccc1CN=[N+]=[N-] ... F
C[C@H]1ON(c2ccccc2)[C@@H](c2ccccc2)[C@@H]1C(=O)N1C(=O)OC[C@@H]1c1ccccc1 ... T
CCCCC(O)C1C=CC2C(=O)N(Cc3ccccc3)C(=O)C2N1n1cnnc1 (stereo unspecified) ... F

Inquiry: Determine whether this molecule has composite z-score no lower than 0.2: "O=C(O)[C@@]1(Cc2ccccc2)COC(c2ccc(OCCCO)cc2)=N1"
Reply text: F

Inquiry: Determine whether this molecule has composite z-score no lower than 0.2: "O=C1C[C@@](C(=O)O)(c2ccc([N+](=O)[O-])cc2)[C@@H](c2ccc(CO)cc2)N1CC12CC3CC(CC(C3)C1)C2"
Reply text: T

Inquiry: Determine whether this molecule has composite z-score no lower than 0.2: "C=CCN1C(=O)[C@@]2(O[C@@H](CCn3cc([C@H](O)c4ccccc4)nn3)[C@H]([Si](C)(C)c3ccc(OC)cc3)[C@H]2C)c2cc(NC(=O)c3ccc(OC)cc3)ccc21"
Reply text: F

====

Give z-score for every item shown.
# TEST_PROTOCOL: hepatitis C replication reporter changes, two-sided – Huh7 cells, luciferase reporter, HCV replication inhibitor project, primary screen (AID 1109);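 further: huh7 hepatoma cells harbouring a luciferase neomycin HCV replicon reporter; luciferase luminescence as measure of HCV replicon replication; test concentration not given here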
# APPLIED_CONDITIONS: Huh7 HCV replicon luciferase reporter, 48 h; higher = more signal
Answers are plain numbers.

Consider the worked cases shown below.
CCCC=C(CCC)[C@@H](NC(=O)Cc1ccccc1)c1ccc(C(=O)OC)cc1 ... -1.11
CCCC[C@@H](O)C1=C(COc2ccccc2)Cn2c(=O)n(-c3ccccc3)c(=O)n2[C@H]1CO ... -1.52
C=C[C@@H](O)[C@H]1CC(c2ccccc2)=NO1 ... 0.479
CCCCC=C[C@@H](NC(=O)CCc1ccccc1)c1ccccc1 ... -2.6
Cc1ccc(C(C)CC(O)C2C=CC3C(=O)N(Cc4ccccc4)C(=O)C3N2n2cnnc2)o1 (centres undefined) ... 0.236

Quick batch: z-score for everything below.
1. C=CC[C@]1(C(=O)N2CCOCC2)N=C(c2ccc(OCCCO)cc2)O[C@H]1c1ccccc1CN=[N+]=[N-]
2. C=CCC(OC(C)=O)[C@@H]1[C@@H](N(Cc2ccc(-c3ccccc3)cc2)C(=O)c2cccc3ccccc23)c2cc(OCCCO)ccc2N1C(=O)c1ccc2ccccc2n1 (some centres undefined)

Reply text:
1: -1.85; 2: -0.281

Quick batch: z-score for everything below.
1. [N-]=[N+]=NCc1ccccc1[C@H]1OC(c2ccc(OCCCO)cc2)=N[C@@]1(Cc1ccccc1N=[N+]=[N-])C(=O)N1CCCCC1
2. COC(=O)c1ccc(OC)c(/C=C\CC(CCc2ccccc2)OC(C)=O)c1 (centres undefined)

Reply text:
1: -2.19; 2: -1.1

====

# TEST_PROTOCOL: resazurin metabolic signal in HepG2 cells – cell-based, resazurin fluorescence, 24 h, PK04 Diversity Set, profiling panel (AID 1172); further: test concentration not given here
# APPLIED_CONDITIONS: HepG2 viability, higher = more signal
Give z-score for every item shown.

CC(C)CCC[C@@H](C)[C@H]1CC[C@@]2(C)C3=C(CC[C@]12C)[C@@]1(C)CC[C@H](OC(=O)c2ccc(N)cc2)C(C)(C)C1CC3 (stereo partly drawn) ... -0.322
C=CC[C@@]1(C(=O)NCC(O)CO)N=C(c2ccc(OCCCO)cc2)O[C@@H]1c1ccccc1 (stereo partly drawn) ... 0.483

# evaluate next
Inquiry: # return recorded z-score for entry "CN(C)CCCC[C@@H]1NC(=O)[C@H]2C[C@@H](C(=O)NCCCCCCNC(=O)CS)[C@@H](c3ccc(O)cc3)N2C1=O"
Reply text: 0.183

====

# System: Sam68 (KHDRBS1)
# TEST_PROTOCOL: compounds binding KHDRBS1 protein – biochemical, small-molecule microarray, 635 nm fluorescence, primary screen (AID 1125);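 further: score merges 667 nm channel intensity with signal to noise over triplicate slides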
# APPLIED_CONDITIONS: higher = more signal
PARAMETER: composite z-score
One number for each entry.

COc1ccc([Si](C)(C)[C@H]2[C@H](CCO)O[C@@]3(C(=O)N(Cc4cccc(N5CCOC5=O)c4)c4ccccc43)[C@@H]2C)cc1 ... 0.996

Quick batch: composite z-score for everything below.
1. OCc1ccc(-c2cc[n+](Cc3cccc(OC(F)(F)F)c3)cc2)cc1
2. COC(=O)[C@@]1(Cc2ccc(F)cc2)[C@H]2c3cc(C(=O)N4CCCC4)n(Cc4ccccc4)c3C[C@H]2CN1C(=O)c1ccccc1
3. CC(C)CCC[C@@H](C)[C@H]1CC[C@@]2(C)C3=C(CC[C@]12C)[C@@]1(C)CC[C@H](OC(=O)C(C)(C)C)C(C)(C)C1CC3 (some centres undefined)
4. C#CCNS(=O)(=O)N(C)C
5. COCCOC(=O)N1C(=O)[C@@]2(c3cc(C#CCNC(N)=O)ccc31)[C@H](c1ccc(OCCO)cc1)N1[C@H](c3ccccc3)[C@H](c3ccccc3)OC(=O)[C@H]1[C@@H]2C(=O)N1CCN(c2ncccn2)CC1

Reply text:
0.981
0.253
0.657
0.815
1.29

====

Give z-score for every item shown.
# TEST_PROTOCOL: growth of efflux-deficient E. coli DRC39 – strain DRC39, OD650, 24 h, E. coli filamentation inducers, primary screen (AID 1178);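 further: growth measured as culture turbidity by optical density at 650 nm; test concentration not given here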
# APPLIED_CONDITIONS: E. coli DRC39 acrAB, higher = more signal, called active from +8 up or from −8 down
Activity calls are given as the source filed them.

CC(C)[Si](C#C[Si](C(C)C)(C(C)C)C(C)C)(O[C@H](C)c1cn(Cc2cccc(Cl)c2)nn1)C(C)C ... 2.07 (inactive)
C=CCOC(=O)[C@@H]1[C@H]2C(=O)O[C@H](c3ccccc3)[C@H](c3ccccc3)N2[C@H](c2ccc(OCCOC(=O)[C@H]3C[C@H]4C(=O)N[C@@H](Cc5ccccc5)C(=O)N4[C@H]3c3cccc(OCCO)c3)cc2)[C@@]12C(=O)Nc1ccc(I)cc12 ... -0.847 (inactive)
COC(=O)[C@@]1(Cc2ccc(OC)cc2)[C@H]2c3cc(C(=O)N4CCCC4)n(CCc4ccc(O)c(OC)c4)c3C[C@H]2CN1C(=O)c1ccccc1 ... -0.744 (inactive)

Quick batch: z-score for everything below.
1. COC(=O)[C@@]1(Cc2ccccc2)[C@H]2c3cc(C(=O)N4CCCC4)n(CCO)c3C[C@H]2CN1C(=O)c1ccccc1
2. CN1C(=O)C2C=CC(C(O)c3ccc(F)cc3)N(N3CCCCC3)C2C1=O (stereo not drawn)
3. CCOC(=O)C[C@H]1[C@H](OC(=O)c2ccc(C(=O)c3ccccc3)cc2)[C@@H](NC(=O)C2CCCCC2)c2cc(OCCCO)ccc2N1C(=O)Cc1ccc(OC)cc1
4. C[N+](C)(C)CCCCNC(=O)[C@H]1C[C@H]2C(=O)NCC(=O)N2[C@H]1c1ccc(O)cc1
5. CN(C)C(=O)[C@@]1(Cc2ccccc2N=[N+]=[N-])N=C(c2ccc(OCCCO)cc2)O[C@H]1c1ccccc1N=[N+]=[N-]
6. [N-]=[N+]=NCc1ccccc1C[C@]1(C(=O)NCCN2CCOCC2)N=C(c2ccc(OCCCO)cc2)O[C@H]1c1ccccc1

Reply text:
0.355 (inactive)
-1.02 (inactive)
-0.29 (inactive)
0.703 (inactive)
0.732 (inactive)
1.24 (inactive)

Quick batch: z-score for everything below.
1. C=C(/C(=C/C[C@@H](OC(C)=O)c1ccccc1OCCO)c1cnc2ccccc2c1)C(C)C
2. NC(=O)NCC#Cc1ccc2c(c1)[C@]1(C(=O)N2)[C@H](c2ccc(OCCO)cc2)N2[C@H](c3ccccc3)[C@H](c3ccccc3)OC(=O)[C@H]2[C@@H]1C(=O)N1CCCCCCC1
3. COC(=O)c1c(CC[C@@H](CO)NC(=O)N[C@@H](C)Cn2cc(C3(O)CCCC3)nn2)oc(C(C)=O)c1C(=O)OC
4. Cc1ccc(S[C@]2(C(=O)O)CC(=O)N(C3CCCCC3)[C@@H]2c2ccc(CO)cc2)cc1

Reply text:
1. -0.997 (inactive)
2. -0.172 (inactive)
3. -0.0257 (inactive)
4. 0.643 (inactive)

Each recorded value in this set is attributed to PubChem BioAssay.
